Test: folding stability dG unfold from trypsin proteolysis; higher = more stable
Quick reference for folding stability dG unfold among some sequences
Give the quantity in kcal/mol, number only.

Return reported folding stability dG unfold. Input sequence: SAGGSAGGSAGMYTVSPVGSGGGGSMIRIENPETGEVIELDFDSEEEAAAAAEELKEKLASAGGSAGGSAGG [r11_848_JUSTAS]
0.343

Return reported folding stability dG unfold. Input sequence: SMPGSITVEIEVEEEEDPERGGRRIKKLLIKKVTYKDEKGNSSDEVANEIKNALKEKLEKEGKPAEIELTSA [r9_261_JUSTAS]
1.35

Return reported folding stability dG unfold. Input sequence: SAGGSKWRMYEITLELGDKPVKITVYYMDGNYSVAIKFPPGRKVDIPFDGPMSPEDAAKKALEALGSAGGSA [r2_92_TrROS]
2.34

Return reported folding stability dG unfold. Input sequence: SAGGSAPKEGTIWIMIPVRYERDPNGKVKPISAEQIADLFQELGFPIKIDEIFDSPGYIMIRIKVKSAGGSA [r15_225_TrROS]
2.5

Return reported folding stability dG unfold. Input sequence: SAGGIWIPIDRIREALKDGMPLDEIVDKLRKHGFPIDRITGIEPSPNSWTIEIEFPEQGMPIEIQISSAGGS [r8_179_TrROS]
1.93

Return reported folding stability dG unfold. Input sequence: SAGGKEKYKIKIYNKKTGKEYEFEIPLDEIVKYDKKNKKIYIKLKNGKKLEFKSLEDIVKIEIEKLPSAGGS [r8_111_TrROS_Hall]
2.34

Return reported folding stability dG unfold. Input sequence: SAKKPLYLIIVKIGPDGKEIVIVAESEEEARKAAEEELRKLFPDLEIKEIKIIPLEKVKTKEEALELLKSAG [r14_900_TrROS_Hall]
2.16

Return reported folding stability dG unfold. Input sequence: SAGGSAGGSAGGKIKDAEIVSVEYDPETGVLYMEVKLEDGSTYRIRFDLKTNKLTIEPVSAGGSAGGSAGGS [r10_674_TrROS_Hall]
3.29

Return reported folding stability dG unfold. Input sequence: MRITLELEDGTRVEIEFERKEDGTLVVRIKVTRKDGKTVEIEVVVRSKDGKITPEELERALREALEELLKKS [r1_124_TrROS_Hall]
4.19

Return reported folding stability dG unfold. Input sequence: SGMDTVTPTTSTTQYFVEPNPEPVLSISTTTDTTTDPANPGVVTVTTTTTITDPRTGTTTTTPTTTTVPASA [r9_342_JUSTAS]
0.142

Return reported folding stability dG unfold. Input sequence: SMVLARIKVRVRDPVTGEELDVEIDLLAPVEVAEEAAEEFRKLFPGLEVEVDLVEVVPLPPVTPEQLAKESA [r9_421_TrMRF]
1.82

* * *

Test: folding stability dG unfold from trypsin proteolysis; higher = more stable
Quick reference for folding stability dG unfold among some sequences
Give the quantity in kcal/mol, number only.

>>> measured_value("SAGGSAGGSKKIKITVVVPKEEAEKLLKELEKAGYKIVSVEKKEIPENELVVIEIVIEKPEELSAGGSAGGS [r12_445_TrROS_Hall]")
3.09

Return reported folding stability dG unfold. Input sequence: SAGKDGDPPKRVRIKFKIPLPGGKLYEVTQTFYPNGSVHVSIRFPNGWMLSAWIPPDGDIEIKIMPIKKSAG [r5_168_TrROS]
3.37

Return reported folding stability dG unfold. Input sequence: SAGGSAGGSAGGLPEDDNYVRVKITFTIMMMEFDPKNGKMQMFPISIEIEIYIPPGAELSAGGSAGGSAGGS [r10_133_TrROS]
2.36

Return reported folding stability dG unfold. Input sequence: SALRPDIPFDAVEKVVIPARHPLLGGVVEAGVYRLKDSDAVLVVVTFPDGSKLVFLVRPDDVLDVLDAISAG [r14_240_TrMRF]
2.38

Return reported folding stability dG unfold. Input sequence: SAGGMIRIERDGDRLTIEIHLPEGEELTPEQLEELARALLEELGPDARVVRVERLEDGTVRIEVELPSAGGS [r8_103_TrROS_Hall]
3.32

Return reported folding stability dG unfold. Input sequence: SAGGSSPASVRTSQTTVTDPATGRTRSVTVTTLPDGTTVSTFDSPGGSLVTTTTTPDGTTTTVTADSAGGSA [r2_109_JUSTAS]
-0.0855

* * *

Test: folding stability dG unfold from trypsin proteolysis; higher = more stable
MEASURE: folding stability dG unfold (kcal/mol)
Give the quantity in kcal/mol, number only.

# annotated cases, reported folding stability dG unfold shown
>>> measured_value("SAGGSAASVVEKTLSPDGTLFVTIKVDPEKKSVPFSITTPDGTPVTVTLPPNTTKTVRVPLGEAALSAGGSA [r15_336_JUSTAS]")
-0.678
>>> measured_value("SAGGSAGGSADDEIVAEFTFTVPGTGVKKVKVKVFKDPNSDEYWVRVEGKWLPVSNPEEALESAGGSAGGSA [r18_67_TrMRF]")
1.62
>>> measured_value("SAGGSAMPLLKPPKTIRLRILFKVPEPGKELDITEEAVRELFNPFGAKVRIYRDGDYVLIEVEFVVSAGGSA [r15_377_TrMRF]")
4.03

# ---- query sequence ----
Return reported folding stability dG unfold. Input sequence: SAMPLDDLPAEQIRELVRSIMRKHGMPPDNVEVDVEVQRPPDGYYYITVDVEMRMNGKERKYKFTIWIPSAG [r14_703_TrROS]
2.99

* * *

Test: folding stability dG unfold from chymotrypsin proteolysis; higher = more stable
MEASURE: folding stability dG unfold
Param answer (str): number followed by unit.

>>> measured_value("SMLLIKITVKNPDGEEKEIVLSAEELRKLFEEETGEEYSLEEIAERLKKLFPNAKVEIVPLEELSEEELKSA [r9_1085_TrROS_Hall]")
"3.58 kcal/mol"

Return reported folding stability dG unfold. Input sequence: SAGGSAGGSAGGIGEGTPIERLIEGKPIPFYVDESTGKAYYTLPEDKKIETTIEDPEKVSAGGSAGGSAGGS [r10_1185_TrMRF]
0.442 kcal/mol

Return reported folding stability dG unfold. Input sequence: SAGKKIKLELYFEENGLKVEVEFDEETGVITVKVELKDGTRIEAKFELLPDGTLKLEIKIEKVKPGEKPSAG [r5_766_TrROS_Hall]
3.87 kcal/mol

Return reported folding stability dG unfold. Input sequence: SAGGSAAVDLSERPPALPVPLKVEVIPIPETGSSLVLVTHPDGFVLLARVNPEGEVELLSAFSLDDSAGGSA [r15_790_TrMRF]
2.86 kcal/mol

* * *

Assay: folding stability dG unfold (combined trypsin and chymotrypsin); higher = more stable
MEASURE: folding stability dG unfold

# annotated cases, reported folding stability dG unfold shown
>>> measured_value("SSPEEDLEEIEITVTNPNDPRPSFVKVTRSPEGYEATFTLPDGKTVKIPPELGLEEIKKLPSSFTITILPSA [r9_781_JUSTAS]")
"0.561 kcal/mol"
>>> measured_value("SAGGSAGGSAGSPPGSTTLRAETVVVELPAAEAYTPEGERVELPRVIVEETVERELEAGLSAGGSAGGSAGG [r11_907_JUSTAS]")
"-0.216 kcal/mol"
>>> measured_value("SNMPIFVRIEHNDGKEVEIPIKGSREQLKDNIQEEIQEYAQENGHKPRSIKVEVYDFGNNQEQTRTIPVKSA [r9_1193_TrROS]")
"< -1 kcal/mol"
>>> measured_value("SAGGSAGGSAGGPEIELLEDVKPGEFVVIKVKLKDADGNEVTATFVFYNGEWYLTKIEPSAGGSAGGSAGGS [r10_288_TrROS_Hall]")
"4.54 kcal/mol"

Return reported folding stability dG unfold. Input sequence: SAGGSAGGSMPYEVTITDPNSDRTRTRKVSGDSPEISEAVPPSHTVTLTFGGTKTTLPVPALSSAGGSAGGS [r20_36_JUSTAS]
< -1 kcal/mol

Return reported folding stability dG unfold. Input sequence: SAGGEYTVVSVLEERKDPATGKTVTLELLKDPNSNVLYRRVTTTDPANPDVVTTTLYDAAGNKVSTVSSAGG [r13_658_JUSTAS]
2.48 kcal/mol

Return reported folding stability dG unfold. Input sequence: SAGGSAGGSKNGEPPPVPTITMRFKDPDKIRKLNKKAGLPIEHDPGNGYITFPYRQIDKILKASAGGSAGGS [r12_325_TrROS]
> 6 kcal/mol

* * *

Experiment: folding stability dG unfold from chymotrypsin proteolysis; higher = more stable
MEASURE: folding stability dG unfold (kcal/mol)
Give the quantity in kcal/mol, number only.

>>> measured_value("WLKFPFPIYNPGFGRPAKFEIELWPDGQLQVTWNGQPILSIPIRIVPPPEVEVDPEYDPNGKEKPKWKYPGS [r1_496_TrROS]")
1.81
>>> measured_value("SEPPPKIKIKEVEYNPDDGYLTIPVTHPNGPKMRVKFRPPDGKTQEIPPNSPTITIPLPPNMRLTEIEVDSA [r9_113_TrROS]")
2.79
>>> measured_value("SAGGSAGMTPVSEAVVPGPNVTTLTTYRDPSSSALITPVTTTPPDGVPVTTTTLDLGSSTVTLSTTSAGGSA [r15_993_JUSTAS]")
0.583

Return reported folding stability dG unfold. Input sequence: SAGMTFEVRYPLPPGQTHKEAREEVKDMVESIAREFMPEGWKIEPKDIDVDPDKGWIEYKVDIEIPPGMSAG [r5_146_TrROS]
1.94

Return reported folding stability dG unfold. Input sequence: SFTPEQVKDIAKTIANRMYDNGYEVEVDVEVEPVNNMPYVEIEFEWRDPDGQPWKFEIIIHPDGDIEIYPSA [r9_1027_TrROS]
2.7

Return reported folding stability dG unfold. Input sequence: SAEVELKPDEELEFEFPDSQVKISYVPGTGVITTTTTFTTPDGTVVYKTTTIKKEGKEVTSTTVSLAEASSA [r9_881_JUSTAS]
1.52

Return reported folding stability dG unfold. Input sequence: SAGGSAGGMIYADNPEEFKKVVKELLKKHPKNKPVFAVLTGSNSKYVIYLSGDKLEKVLAFPVPSAGGSAGG [r6_288_TrMRF]
1.62
